Below, each entry is listed alongside its reported Herbicidal rating AMBEL.
# System: AMBEL (Ragweed, Common)
# Protocol Summary: Postemergence herbicidal evaluation
# Format: in vivo, Ambrosia artemisifolia
# Condition Notes: postemergence, rate 0.0313 kg/ha
Reported Property: Herbicidal rating AMBEL

* Cc1cc(C)cc(CN2C(=O)CSC2=Nc2cc(-n3c(=O)cc(C(F)(F)F)n(C)c3=O)c(F)cc2Cl)c1 | 9.0
* CCOC(=O)CN1C(=O)C(C(=O)OC(C)(C)C)SC1=Nc1cc(-n2c(=O)cc(C(F)(F)F)n(C)c2=O)c(F)cc1Cl (stereo not drawn) | 7.0
* Cn1c(C(F)(F)F)cc(=O)n(-c2cc(N=C3SCC(=O)N3Cc3cccc(Cl)c3)c(Cl)cc2F)c1=O | 9.0

---

Entries and their Herbicidal rating AMBEL
# Tested on: AMBEL (Ragweed, Common)
# Protocol Summary: Postemergence herbicidal evaluation
# Assay type: in vivo, Ambrosia artemisifolia
# Condition Notes: postemergence, rate 0.0313 kg/ha
Reported Property: Herbicidal rating AMBEL

* COc1cc(CN2C(=O)CSC2=Nc2cc(-n3c(=O)cc(C(F)(F)F)n(C)c3=O)c(F)cc2Cl)cc(OC)c1OC [Compound 140] | 2.0
* Cn1c(C(F)(F)F)cc(=O)n(-c2cc(N=C3SCC(=O)N3Cc3cc(Cl)cc(Cl)c3)c(Cl)cc2F)c1=O [Compound 150] | 9.0
* Cn1c(C(F)(F)F)cc(=O)n(-c2cc(N=C3SCC(=O)N3CC(=O)OCC3CCCCC3)c(Cl)cc2F)c1=O [Compound 123] | 9.0
* Cn1c(C(F)(F)F)cc(=O)n(-c2cc(N=C3SCC(=O)N3CC(=O)OC3CCCC3)c(Cl)cc2F)c1=O [Compound 120] | 9.0
* CN(C)c1ccc(CN2C(=O)CSC2=Nc2cc(-n3c(=O)cc(C(F)(F)F)n(C)c3=O)c(F)cc2Cl)cc1 [Compound 138] | 9.0
* CN1C(=O)C(CC(=O)NS(=O)(=O)c2ccccc2)SC1=Nc1cc(-n2c(=O)cc(C(F)(F)F)n(C)c2=O)c(F)cc1Cl (stereo not shown) [Compound 102] | 9.0
* CCOC(=O)CN1C(=O)C(COC)SC1=Nc1cc(-n2c(=O)cc(C(F)(F)F)n(C)c2=O)c(F)cc1Cl (stereo not shown) [Compound 156] | 7.0

---

# System: ORYSAT (Rice, Tebonnet)
# Protocol Summary: Rice tolerance to post-transplant applications, flooded paddy conditions (Table III)
# Format: in vivo, Oryza sativa, (L.) Tebonnet
# Condition Notes: in vivo
Reported Property: ORYSAT herbicidal effect rating (rice tolerance)

- COC(=O)C(C)OC(=O)CN1C(=O)CSC1=Nc1cc(-n2c(=O)cc(C(F)(F)F)n(C)c2=O)c(F)cc1Cl (centres unmarked): 4.0
- CN1C(=O)C(CC(=O)O)SC1=Nc1cc(-n2c(=O)cc(C(F)(F)F)n(C)c2=O)c(F)cc1Cl (centres unmarked): 3.0
- Cn1c(C(F)(F)F)cc(=O)n(-c2cc(/N=C3/SC(CC(=O)O)C(=O)N3CC(=O)O)c(Cl)cc2F)c1=O (centres unmarked): 0.0
- CCOC(=O)CN1C(=O)C(Cc2ccccc2OCC(=O)O)S/C1=N/c1cc(-n2c(=O)cc(C(F)(F)F)n(C)c2=O)c(F)cc1Cl (centres unmarked): 0.0
- CC(C)C[C@@H](C(=O)O)N1C(=O)CSC1=Nc1cc(-n2c(=O)cc(C(F)(F)F)n(C)c2=O)c(F)cc1Cl: 4.0

---

This listing pairs compounds with measured ORYSAT herbicidal rating.
# Tested on: ORYSAT (Rice, Tebonnet)
# Protocol Summary: Postemergence herbicidal evaluation
# Type: in vivo, Oryza sativa, (L.) Tebonnet
# Condition Notes: postemergence, rate 0.0158 kg/ha
Reported Property: ORYSAT herbicidal rating

• COC(=O)[C@@H](Cc1ccccc1)N1C(=O)CSC1=Nc1cc(-n2c(=O)cc(C(F)(F)F)n(C)c2=O)c(F)cc1Cl = 3.5
• CCOC(=O)[C@H](Cc1ccccc1)N1C(=O)CSC1=Nc1cc(-n2c(=O)cc(C(F)(F)F)n(C)c2=O)c(F)cc1Cl = 3.5
• COC(=O)C(Cc1ccc(Cl)cc1)N1C(=O)CSC1=Nc1cc(-n2c(=O)cc(C(F)(F)F)n(C)c2=O)c(F)cc1Cl (racemic) = 2.0
• CC(C)C[C@@H](C(=O)O)N1C(=O)CSC1=Nc1cc(-n2c(=O)cc(C(F)(F)F)n(C)c2=O)c(F)cc1Cl = 3.0

---

# System: ECHCG (Barnyardgrass)
# Protocol Summary: Preemergence herbicidal evaluation
# Type: in vivo, Echinochloa crus-galli
# Condition Notes: rate 0.2500 kg/ha; rated 4-5 weeks after treatment
Reported Property: Preemergence herbicidal rating ECHCG

• Cc1ccccc1CN1C(=O)CSC1=Nc1cc(-n2c(=O)cc(C(F)(F)F)n(C)c2=O)c(F)cc1Cl = 0.0
• C[C@@H](C(=O)OC(C)(C)C)N1C(=O)CSC1=Nc1cc(-n2c(=O)cc(C(F)(F)F)n(C)c2=O)c(F)cc1Cl = 2.0
• CCOC(=O)CN1C(=O)C(CCO)S/C1=N/c1cc(-n2c(=O)cc(C(F)(F)F)n(C)c2=O)c(F)cc1Cl (stereo not drawn) = 3.0

---

# Test system: GALAP (Galium)
# Protocol Summary: Preemergence herbicidal evaluation
# Type: in vivo, Galium aparine
# Condition Notes: rate 0.2500 kg/ha; rated 4-5 weeks after treatment
# if value of Preemergence herbicidal rating GALAP reaches 6, tag YES; if it stays below, tag NO

* COC(=O)C(C)OC(=O)CN1C(=O)CSC1=Nc1cc(-n2c(=O)cc(C(F)(F)F)n(C)c2=O)c(F)cc1Cl (stereo not drawn) | YES
* C=CCN1C(=O)C(CC(=O)OC)SC1=Nc1cc(-n2c(=O)cc(C(F)(F)F)n(C)c2=O)c(F)cc1Cl (stereo not drawn) | YES
* CC(C)OC(=O)CN1C(=O)CSC1=Nc1cc(-n2c(=O)cc(C(F)(F)F)n(C)c2=O)c(F)cc1Cl | NO
* C=CCOC(=O)CC1SC(=Nc2cc(-n3c(=O)cc(C(F)(F)F)n(C)c3=O)c(F)cc2Cl)N(CC=C)C1=O (stereo not drawn) | YES
* Cc1ccccc1CN1C(=O)CSC1=Nc1cc(-n2c(=O)cc(C(F)(F)F)n(C)c2=O)c(F)cc1Cl | NO
* C[C@@H](C(=O)O)N1C(=O)CS/C1=N/c1cc(-n2c(=O)cc(C(F)(F)F)n(C)c2=O)c(F)cc1Cl | YES
* CCOC(=O)CN1C(=O)C(C(=O)OC)SC1=Nc1cc(-n2c(=O)cc(C(F)(F)F)n(C)c2=O)c(F)cc1Cl (stereo not drawn) | NO
* C#CCOC(=O)CN1C(=O)CSC1=Nc1cc(-n2c(=O)cc(C(F)(F)F)n(C)c2=O)c(F)cc1Cl | YES
* COC(=O)C(Cc1ccc(Cl)cc1)N1C(=O)CSC1=Nc1cc(-n2c(=O)cc(C(F)(F)F)n(C)c2=O)c(F)cc1Cl (racemic) | NO
* CC(C)S(=O)(=O)NC(=O)CC1SC(=Nc2cc(-n3c(=O)cc(C(F)(F)F)n(C)c3=O)c(F)cc2Cl)N(C)C1=O (stereo not drawn) | NO
* CCOC(=O)CN1C(=O)C(CC(=O)OC)S/C1=N/c1cc(-n2c(=O)cc(C(F)(F)F)n(C)c2=O)c(F)cc1Cl (stereo not drawn) | YES

---

# System: ZEAMX (Corn, Field)
# Protocol Summary: Postemergence herbicidal evaluation
# Format: in vivo, Zea mays
# Condition Notes: postemergence, rate 0.0630 kg/ha
Reported Property: ZEAMX herbicidal rating

- CCOC(=O)CN1C(=O)C(CC(=O)Nc2ccccc2)SC1=Nc1cc(-n2c(=O)cc(C(F)(F)F)n(C)c2=O)c(F)cc1Cl (stereo not shown): 5.5
- CCOC(=O)[C@H](Cc1ccccc1)N1C(=O)CSC1=Nc1cc(-n2c(=O)cc(C(F)(F)F)n(C)c2=O)c(F)cc1Cl: 5.5
- C[C@@H](C(=O)OC(C)(C)C)N1C(=O)CSC1=Nc1cc(-n2c(=O)cc(C(F)(F)F)n(C)c2=O)c(F)cc1Cl: 5.0
- CCOC(=O)CN1C(=O)C(Cc2ccccc2)SC1=Nc1cc(-n2c(=O)cc(C(F)(F)F)n(C)c2=O)c(F)cc1Cl (stereo not shown): 5.5

---

# Tested on: TRZAWR (Wheat, Winter, cv Riband)
# Protocol Summary: Preemergence herbicidal evaluation
# Format: in vivo, Triticum aestivum
# Condition Notes: rate 0.0625 kg/ha; rated 4-5 weeks after treatment
Reported Property: TRZAWR preemergence herbicidal rating

• CCOC(=O)/C=C1/S/C(=N/c2cc(-n3c(=O)cc(C(F)(F)F)n(C)c3=O)c(F)cc2Cl)N(CC(=O)OCC)C1=O [Compound 14] = 0.0
• CN(C)N1C(=O)CSC1=Nc1cc(-n2c(=O)cc(C(F)(F)F)n(C)c2=O)c(F)cc1Cl [Compound 23] = 1.0
• C=CCN1C(=O)CSC1=Nc1cc(N2C(=O)C3=C(CCCC3)C2=O)c(F)cc1Cl [Compound 2] = 0.0
• CCOC(=O)CN1C(=O)CN(C)C1=Nc1cc(-n2c(=O)cc(C(F)(F)F)n(C)c2=O)c(F)cc1Cl [Compound 25] = 2.0
